System: UACC-257
Experiment: cells
Conditions: Homo sapiens, UACC-257, 48 h, read-out: LC50, UACC-257, 48 h
This listing pairs compounds with measured CC50.
Lab book: enter the figure in µM, no units written.

[
  {
    "compound": "O=C(O)C(c1ccccc1)N1C(=O)/C(=C/C=C/c2ccc([N+](=O)[O-])o2)SC1=S (stereo not shown)",
    "CC50 [µM]": 56.1
  }
]

Which CC50 is reported for this compound? O=C(O)CCCN1C(=O)/C(=C/C=C/c2ccc([N+](=O)[O-])o2)SC1=S [13b]
6.36

Next record, please: CCCC(C(=O)O)N1C(=O)/C(=C/C=C/c2ccc([N+](=O)[O-])o2)SC1=S (stereo not shown)
14.8
